All values here come from the nanobody polyreactivity screen of Harvey et al. (2022).

Assay: yeast display, Sf9 membrane polyspecificity reagent, FACS + sequencing; frameworks hold sequencing errors
measured-parameter: polyreactivity (PSR sort gate)

Example results:
seq-text	polyreactivity (PSR sort gate)
QVQHVESGGGLVQAGGSLRLSCAASGRIFYLNAMGWYREAPGKERELVAAINTSGDSTYYADSVKGRFTISRDNAKNTVYLQMNSLKPVDTAVFYCAAYVIGPDQFIYDYWGQGTQVTVSS	low polyreactivity
QVQLVESGGGLVQAGGSLRLSCAASGSIFDRYAMGWYRQAPGKERELVAAISTGGSTNYADSVKGRFTISRDNAKNTVYLQMNSLKPEDTAVYYCAARYLYRMYYWGQGTQVTVSS	low polyreactivity
QVQLVESGGGLVQAGGSLRLSCAASGSTLESYAMGWYRQAAGKERELVAAISKSGGRTYYADSVKGRFTISRDNAKNTVYLQMNSLKPEDTAVYYCAADSCTHLTYYWGQGTQVTVSS	high polyreactivity
QVQLVESGGGLVQAGGSLRLSCAASGLIIYRYGMGWYRQAPGKERELVAAISYSGSSTYYADSVKGRFTISRDNAKNTVYLQMISLKPEDTAVYYCAAQSTRPYPGRYYYWGQGTQVTVSS	high polyreactivity
QVQLVESGGGLVQAGRTLRLSCAATGFIIVHNAMGWYRQPPGKERELVAAITSRGRTYYADSVKGRFTISRDHAKNTVYLQMNSLKPEDTAVYYCNPYWRGDYRYDSWGQGTQVTVSS	high polyreactivity

Next sequence, please.
### Prompt Entry under review: QVQLVESGGGLVQAGGSLRLSCAASGRTLTRYAMGWYRQAPGKERELVATISRCGSTNYADSVKGRFTISRDNGKNTVYLQMNSLKPEDTAVYYCAARGRLTAEFDYWGQGTQVTVSS . Reported polyreactivity (PSR sort gate)?
### Response low polyreactivity

* * *

Assay: yeast display, Sf9 membrane polyspecificity reagent, FACS + sequencing; frameworks hold sequencing errors
measured-parameter: polyreactivity (PSR sort gate)

Example results:
seq-text	polyreactivity (PSR sort gate)
QVQLVESGGGLVQAGGSLRLSCAASGRTFGYYAMGWYRQAPGKERELVAGIRSSGGSTYYADSVKGRFTISRDNAKNTVYLQMNSLKAEDTAVYYCAARLRSYNYRYGYDYWGQGTQVTVSS	high polyreactivity
QVHLVESGGGLVQAGGSLRLSCAASGSTLGRYAMGWYRQAPGKERELVAAISWRGGSTYYADSVKGRFTISRDNAKNTDYLQMHSLKPEDTAVYYCADTYRFSEYYYWGQGTQVTVSS	high polyreactivity
QVQLVESGGGLVQAGGILRLSCAASGQIFTYYVMGWYRQAPGKERELVAAIDWDSGSTSYADSLKGRFTISRDNAKNTVYLQMNSLKPEDTAVYYCAADEVLSGYYTLDYWGQGTQVTVSS	low polyreactivity
QVQLVESGGGLVQAGGSLRLSCAASGYTFYIYVMGWYRQAPGKERELVAAISSGDSTNYADSVKGRFTISRDNAKNTVYLQMNSLKPEDTAVYYCNAVHRSIARGGGMDYWGQGTQVTVSS	low polyreactivity
QVQHVESGGGLLQAGGSLRLSCAASGITFWPYAMGWYRQAPGKERELVAAIRASVGRTYYADSVKGRFTISREYAKNTVYLQMNSLIPVDTAVYYCNAYGRYGKFRVEYDYWGQGTQVTVSS	low polyreactivity
QVKLVESAVRLVQAGGSLRLSCAASASTLYRYSMGLYRQAPGKERELVAAISSSGGSSYYADSVKGRFTISRDNAKNTVYLQMNRLKQEDTAVYYCSAAALRTIGAGYRYGNWGQGTQVTVSS	high polyreactivity
QVQLVESGGGLVQAGGSLRLSCAASGRIFSFNGMGWYRPAPGKERELVAAITSSGGRTYYADSVKGRFTISRDNAKNTVYLQMNSLIPEDTAVYYCAAELAWDYYWGQGTQVTVSS	low polyreactivity
QFQLVESCAGLVQAGGSLRLSCADSGRIFRQYAMGWYIPAPGKERELVASITRNGGSTYYADSVKGRFTISRDNAKNTVYLQMNSQKPEDTAVYYCAKDVKGSYAYDSWGQGTQVTVSS	high polyreactivity
QVQLVESGGGLVQAGGSLRLSCAASGRIFWDNALGWYRKAPGTERELVAAISDSVVITYYADSVKGRFTISRDNAKNTVYLQMNSLKPEDSAVYYCAAGGWPYSGGWFFQPNYDYWGQGTQVTVSS	low polyreactivity
QVQLVESGGGLVQAGGSLRLSCAASGLTFASNAMGWYRQAPGKERELVAAISWSDGSTYYADSVKGRFTISRDNAKNTVYLQMNSLKPEDTAVYYCAAESYFFSPRTREKFDYWGQGTQVTVSS	low polyreactivity

Next sequence, please.
### Prompt Entry under review: QDQLVESGGGLVQAGGRLRLTCAASGAIFSNYAMGWYRQAPGKERELLAAITNGVSTNYAVSVKGRLTISRDNAKNTVFLQMNSLKPEDTAVYYCAAVGYRATYRVGGYLRYYYWGQGTQVTVSS . Reported polyreactivity (PSR sort gate)?
### Response high polyreactivity
